Tested on: NCI-H1975 cells (T790M and L858R EGFR mutations)
experiment: Cell growth inhibition (Cell Titer-Glo), NCI-H1975
Format: cell-based
assay setup: Homo sapiens, 72 hours drug treatment, 0.03 nM to 100 nM
Where a name gives a salt, the structure may show the parent alone.
assay readout: IC50 (nM)

{"columns": ["compound", "IC50 [nM]"],
 "data": [
  ["C=CC(=O)Nc1cc(Nc2nccc(-c3cn(C)c4ccccc34)n2)c(OC)cc1N(C)CCCN(C)C", 134]
]}

P = C=CC(=O)Nc1cc(Nc2nccc(-c3nc(C)c4ccccn34)n2)c(OC)cc1N(C)CCN(C)C [52. (HCl)n]
Q = C=CC(=O)Nc1cc(Nc2cc(-c3cn(C)c4ccccc34)ncn2)c(OC)cc1N(C)CCN(C)C [44. (HCl)n]
# input Compare the recorded IC50 of P and Q ; state which is larger. Give the chosen item's label as your response.
# output Q
(Q: 14 nM, P: 5.2 nM)

----------
System: NCI-H2073 cells (wild-type EGFR human non-small cell lung cancer)
experiment: Cell growth inhibition (Cell Titer-Glo), NCI-H2073
Type: cell-based
assay setup: 72 hours drug treatment, 3 nM to 10 μM
Where a name gives a salt, the structure may show the parent alone.
assay readout: IC50 (nM)

{"columns": ["molecule", "unit abbreviation", "IC50"],
 "data": [
  ["C=CC(=O)Nc1cc(Nc2nccc(-n3cc(C)c4ccccc43)n2)c(OC)cc1N(C)CCN(C)C [4. (MsOH)3]", "nM", 500]
]}

1 = C=CC(=O)Nc1cc(Nc2nccc(-n3nnc4ccccc43)n2)c(OC)cc1N(C)CCN(C)C [2. (MsOH)3]
2 = [2H]C([2H])([2H])Oc1cc(N(C)CCN(C)C)c(NC(=O)C=C)cc1Nc1nccc(-n2c(=O)n(C)c3ccccc32)n1 [60. (HCl)n]
# input Of the pair 1 and 2 , name the member with the lesser recorded IC50. Give the chosen item's label as your response.
# output 2
(2: 110 nM, 1: 474 nM)

----------
Test system: NCI-H1975 cells (T790M and L858R EGFR mutations)
experiment: Cell growth inhibition (Cell Titer-Glo), NCI-H1975
Assay type: cell-based
assay setup: Homo sapiens, 72 hours drug treatment, 0.03 nM to 100 nM
pIC50: −log10 of the molar value. Counter-ions that a name gives are not always drawn.
assay readout: pIC50

The cases that follow already have their pIC50 on record.
{"columns": ["molecule", "pIC50"],
 "data": [
  ["C=CC(=O)Nc1cc(Nc2nccc(N3CC4(CC4)c4ccccc43)n2)c(OC)cc1N(C)CCN(C)C [38. (HCl)n]", 8.09],
  ["C=CC(=O)Nc1cc(Nc2nccc(-n3c(=O)n(CC(F)F)c4ccccc43)n2)c(OC)cc1N(C)CCN(C)C", 8.35]
]}

1 = C=CS(=O)(=O)Nc1cc(Nc2nccc(-c3cn(C)c4ccccc34)n2)c(OC)cc1N(C)CCN1CCCC1
2 = C=CC(=O)Nc1cc(Nc2nccc(-c3cccc4c3cnn4C)n2)c(OC)cc1N(C)CCN(C)C [42. (HCl)n]
3 = [2H]C([2H])([2H])N(CCN(C)c1cc(OC)c(Nc2nccc(-n3c(=O)[nH]c4ccccc43)n2)cc1NC(=O)C=C)C([2H])([2H])[2H] [61. (HCl)n]
# input Order these by pIC50, descending, and give the full ranking. Present the labels in the sequence the task asks for.
# output 3, 2, 1
(3: 8.82, 2: 8.15, 1: 6.81)

----------
Test system: NCI-H1975 cells (T790M and L858R EGFR mutations)
experiment: Cell growth inhibition (Cell Titer-Glo), NCI-H1975
Format: cell-based
assay setup: Homo sapiens, 72 hours drug treatment, 0.03 nM to 100 nM
pIC50: −log10 of the molar value. Structures can show the parent of a compound that is named as a salt.
assay readout: pIC50

The cases that follow already have their pIC50 on record.
{"columns": ["molecule", "study system", "measured result"],
 "data": [
  ["C=CC(=O)Nc1cc(Nc2nccc(-c3cn(C)c4ccccc34)n2)c(OC)cc1N(C)CCN(C)CCOC [54. (HCl)n]", "NCI-H1975 cells (T790M and L858R EGFR mutations)", 7.42],
  ["C=CC(=O)Nc1cc(Nc2nccc(-c3nn(CC)c4ccccc34)n2)c(OC)cc1N(C)CCN(C)C [51. (HCl)n]", "NCI-H1975 cells (T790M and L858R EGFR mutations)", 8.59],
  ["[2H]C([2H])([2H])N(CCN(C)C)c1cc(OC)c(Nc2nccc(-n3c(=O)n(C([2H])([2H])[2H])c4ccccc43)n2)cc1NC(=O)C=C", "NCI-H1975 cells (T790M and L858R EGFR mutations)", 9.00],
  ["C=CC(=O)Nc1cc(Nc2nccc(-c3cn(S(=O)(=O)C(C)C)c4ccccc34)n2)c(OC)cc1N(C)CCN(C)C", "NCI-H1975 cells (T790M and L858R EGFR mutations)", 8.19],
  ["C=CC(=O)Nc1cc(Nc2nccc(-c3cn(C)c4ccccc34)n2)c(OC)cc1N(C)CCN(CC)CC", "NCI-H1975 cells (T790M and L858R EGFR mutations)", 6.95]
]}

a = [2H]C([2H])([2H])N(CCN(C)C)c1cc(OC)c(Nc2nccc(-c3cn(CC)c4ccccc34)n2)cc1NC(=O)C=C
b = C=CC(=O)Nc1cc(Nc2nccc(-n3ccc(=O)c4ccccc43)n2)c(OC)cc1N(C)CCN(C)C [56. (HCl)n]
c = [2H]C([2H])([2H])N(CCN(C)c1cc(OC)c(Nc2nccc(N3CCc4ccccc43)n2)cc1NC(=O)C=C)C([2H])([2H])[2H] [62. (HCl)n]
# input Order these by pIC50, descending, and give the full ranking. Present the labels in the sequence the task asks for.
# output a, c, b
(a: 8.77, c: 8.49, b: 7.44)

A = [2H]C([2H])([2H])N(CCN(C)C)c1cc(OC)c(Nc2nccc(-n3c(=O)n(CC)c4ccccc43)n2)cc1NC(=O)C=C
B = C=CC(=O)Nc1cc(Nc2nccc(N3c4ccccc4N(CC)S3(=O)=O)n2)c(OC)cc1N(C)CCN(C)C
# input Of the pair A and B , name the member with the lesser recorded pIC50. Give the chosen item's label as your response.
# output B
(B: 8.57, A: 9.40)

1 = C=CC(=O)Nc1cc(Nc2nccc(-c3cn(C)c4ccccc34)n2)c(OC)cc1N1CCC(N2CCC2)C1 (centres unmarked)
2 = C=CC(=O)Nc1cc(Nc2nccc(-c3cn(C)c4ccccc34)n2)c(OC)cc1N1CC(N2CCCC2)C1
3 = C=CC(=O)Nc1cc(Nc2nccc(-c3cn(S(=O)(=O)C4CC4)c4ccccc34)n2)c(OC)cc1N(C)CCN(C)C
# input Order these by pIC50, descending, and give the full ranking. Present the labels in the sequence the task asks for.
# output 3, 1, 2
(3: 7.88, 1: 7.36, 2: 7.04)

----------
System: NCI-H1975 cells (T790M and L858R EGFR mutations)
experiment: Cell growth inhibition (Cell Titer-Glo), NCI-H1975
Assay type: cell-based
assay setup: Homo sapiens, 72 hours drug treatment, 0.03 nM to 100 nM
pIC50: −log10 of the molar value. Structures can show the parent of a compound that is named as a salt.
assay readout: pIC50

{"columns": ["compound", "pIC50"],
 "data": [
  ["C=CC(=O)Nc1cc(Nc2cc(-c3cn(C)c4ccccc34)ccn2)c(OC)cc1N(C)CCN(C)C [43. (HCl)n]", 7.74],
  ["[2H]C([2H])([2H])N(CCN(C)C)c1cc(OC)c(Nc2nccc(-n3nnc4ccccc43)n2)cc1NC(=O)C=C", 7.84],
  ["C=CC(=O)Nc1cc(Nc2nccc(-c3cn(C)c4ccccc34)n2)c(OC)cc1N(C)CCN1CCC1", 7.45],
  ["C=CC(=O)Nc1cc(Nc2nccc(-c3cn(CC(F)(F)F)c4ccccc34)n2)c(OC)cc1N(C)CCN(C)C", 7.78],
  ["C=CC(=O)Nc1cc(Nc2nccc(-n3cc(S(C)(=O)=O)c4ccccc43)n2)c(OC)cc1N(C)CCN(C)C", 7.00],
  ["C=CC(=O)Nc1cc(Nc2nccc(-n3nnc4ccccc43)n2)c(OC)cc1N(C)CCN(C)C", 8.21],
  ["C=CC(=O)Nc1cc(Nc2nccc(-c3nn(C)c4ccccc34)n2)c(OC)cc1N(C)CCN(C)C [1. (HCl)n]", 8.27],
  ["C=CC(=O)Nc1cc(Nc2nccc(-n3ccc4ccccc43)n2)c(OC)cc1N(C)CCN(C)C", 8.21],
  ["C=CC(=O)Nc1cc(Nc2nccc(-n3cc(C)c4ccccc43)n2)c(OC)cc1N(C)CCN(C)C", 8.07],
  ["C=CC(=O)Nc1cc(Nc2nccc(-c3cn(C)c4ccccc34)n2)c(OC)cc1N1CCC(N2CCOCC2)CC1", 7.08]
]}

A = C=CC(=O)Nc1cc(Nc2nccc(N3CCc4ccccc43)n2)c(OC)cc1N(C)CCN(C)C
B = C=CC(=O)Nc1cc(Nc2nccc(N3c4ccccc4N(C)S3(=O)=O)n2)c(OC)cc1N(C)CCN(C)C
# input Of the pair A and B , name the member with the lesser recorded pIC50. Give the chosen item's label as your response.
# output A
(A: 8.27, B: 8.54)

I = [2H]C([2H])([2H])N(CCN(C)C)c1cc(OC)c(Nc2nccc(-c3cn(S(C)(=O)=O)c4ccccc34)n2)cc1NC(=O)C=C
II = C=CC(=O)Nc1cc(Nc2nccc(-c3cn(C)c4ccccc34)n2)c(OC)cc1N1CCC(N2CCCC2)C1 (stereo not shown)
III = [2H]C([2H])([2H])N(CCN(C)c1cc(OC)c(Nc2nccc(-n3nnc4ccccc43)n2)cc1NC(=O)C=C)C([2H])([2H])[2H] [64. (HCl)n]
# input Order these by pIC50, descending, and give the full ranking. Present the labels in the sequence the task asks for.
# output I, III, II
(I: 9.40, III: 8.22, II: 7.31)
